Let's look at some compounds and their measured IC50.
Target: UniProt:P51812
Test: HTRF KinEASE-STK assay of RSK2 kinase inhibition in vitro
Details: 0.18 nM RSK2 recombinase, 10 μM ATP, read-out: IC50, in vitro inhibitory activity on RSK2 kinase
Quick note: give the figure in nM, leave out the unit.

query: For the compound C[C@@H]1CNC(=O)c2cc3ccc(C(=O)Nc4cnn(Cc5cnc(C(C)(C)O)c(F)c5)c4)nc3n21 [Compound 15] , report IC50.
result: 0.08

query: For the compound C[C@@H]1CNC(=O)c2cc3ccc(C(=O)Nc4cnn(Cc5ccc(C6(O)CCC6)nc5)c4)nc3n21 [Compound 11] , report IC50.
result: 0.29

query: For the compound C[C@@H]1CNC(=O)c2cc3ccc(C(=O)Nc4cnn(Cc5ccc(N)cc5)c4)nc3n21.Cl [Control Compound II, reference compound] , report IC50.
result: 1.08

query: For the compound C[C@@H]1CNC(=O)c2cc3cc(F)c(NC(=O)c4cnn(Cc5ccc(N)cc5)c4)nc3n21 [Compound 6] , report IC50.
result: 175

query: For the compound C[C@@H]1CNC(=O)c2cc3ccc(C(=O)Nc4cnn(Cc5ccc(N=S(C)(C)=O)cc5)c4)nc3n21 [Compound 2] , report IC50.
result: 0.31

query: For the compound [2H]C([2H])([2H])C(O)(c1ccc(Cn2cc(NC(=O)c3ccc4cc5n(c4n3)[C@H](C)CNC5=O)cn2)cn1)C([2H])([2H])[2H] [Compound 17] , report IC50.
result: 0.22

query: For the compound C[C@@H]1CNC(=O)c2cc3ccc(C(=O)Nc4cnn(Cc5ccc(C6(O)CC6)nc5)c4)nc3n21 [Compound 10] , report IC50.
result: 0.11

---

Target: RSK2 kinase (Homo sapiens)
Sequence (P51812 whole entry): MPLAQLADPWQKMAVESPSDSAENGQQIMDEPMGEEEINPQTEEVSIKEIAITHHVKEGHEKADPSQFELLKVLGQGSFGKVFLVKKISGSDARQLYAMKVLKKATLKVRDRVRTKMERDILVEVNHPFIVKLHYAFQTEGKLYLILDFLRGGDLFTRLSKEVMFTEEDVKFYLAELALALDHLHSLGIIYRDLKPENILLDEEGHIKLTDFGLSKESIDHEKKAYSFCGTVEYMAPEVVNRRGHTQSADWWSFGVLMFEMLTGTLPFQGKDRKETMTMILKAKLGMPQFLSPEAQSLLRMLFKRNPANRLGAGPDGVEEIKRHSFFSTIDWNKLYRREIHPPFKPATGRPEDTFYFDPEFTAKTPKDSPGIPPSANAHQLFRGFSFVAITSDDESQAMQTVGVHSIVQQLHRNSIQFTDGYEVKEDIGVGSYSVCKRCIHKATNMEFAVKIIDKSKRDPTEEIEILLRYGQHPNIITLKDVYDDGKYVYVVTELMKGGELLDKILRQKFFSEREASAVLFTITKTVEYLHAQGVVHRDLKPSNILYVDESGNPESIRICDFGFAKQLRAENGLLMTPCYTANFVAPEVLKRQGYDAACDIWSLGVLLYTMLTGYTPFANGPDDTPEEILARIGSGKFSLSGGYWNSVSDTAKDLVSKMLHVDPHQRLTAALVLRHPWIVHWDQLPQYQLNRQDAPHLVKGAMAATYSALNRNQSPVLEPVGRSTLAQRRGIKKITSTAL
Experiment: HTRF KinEASE-STK assay of RSK2 kinase inhibition in vitro
Conditions: 0.18 nM RSK2 recombinase, 10 μM ATP, read-out: IC50, in vitro inhibitory activity on RSK2 kinase
reported_endpoint: IC50 (nM)
Quick note: give the figure in nM, leave out the unit.

Below: 3 compounds and their reported IC50.
• C[C@@H]1CNC(=O)c2cc3ccc(C(=O)Nc4cnn(Cc5ccc(P(C)(C)=O)cc5)c4)nc3n21 = 0.44
• C[C@@H]1CNC(=O)c2cc3ccc(C(=O)Nc4cnn(Cc5ccc(N)cc5)c4)c(F)c3n21 = 99.9
• C[C@@H]1NC(=O)c2cc3ccc(C(=O)Nc4cnn(Cc5ccc(C(C)(C)O)nc5)c4)nc3n2[C@@H]1C = 0.43

query: For the compound `C[C@H]1Cn2c(cc3ccc(C(=O)Nc4cnn(Cc5ccc(C(C)(C)O)nc5)c4)nc32)C(=O)N1` , report IC50.
result: 1.58

---

Assay: Pharmacokinetic study in mice
Assay type: in vivo
Details: mouse; male ICR mice, oral gavage administration, 10 mg/kg, plasma
Let's look at some compounds and their measured Tmax.

Below: 2 compounds and their reported Tmax.
* C[C@@H]1CNC(=O)c2cc3ccc(C(=O)Nc4cnn(Cc5ccc(N)cc5)c4)nc3n21.Cl [Control Compound II, reference compound] | 25.2 min
* C[C@@H]1CNC(=O)c2cc3ccc(C(=O)Nc4cnn(Cc5cnc(C(C)(C)O)c(F)c5)c4)nc3n21 [Compound 15] | 30 min

The record that follows has no Tmax shown yet.
query: For the compound C[C@@H]1CNC(=O)c2cc3ccc(C(=O)Nc4cnn(Cc5ccc(C(C)(C)O)nc5)c4)nc3n21 [Compound 5] , report Tmax.
result: 15 min

---

Assay: Pharmacokinetic study in mice
Format: in vivo
Details: mouse; male ICR mice, oral gavage administration, 10 mg/kg, plasma
Let's look at some compounds and their measured Cmax.
Quick note: give the figure in ng/mL, leave out the unit.

• C[C@@H]1CNC(=O)c2cc3ccc(C(=O)Nc4cnn(Cc5cnc(C(C)(C)O)c(F)c5)c4)nc3n21 [Compound 15] = 22800
• C[C@@H]1CNC(=O)c2cc3ccc(C(=O)Nc4cnn(Cc5ccc(C(C)(C)O)nc5)c4)nc3n21 [Compound 5] = 17900

The record that follows has no Cmax shown yet.
query: For the compound C[C@@H]1CNC(=O)c2cc3ccc(C(=O)Nc4cnn(Cc5ccc(N)cc5)c4)nc3n21.Cl [Control Compound II, reference compound] , report Cmax.
result: 3420

---

Molecular target: RSK2 kinase (Homo sapiens)
Construct: purchased Carna 01-150
Test: HTRF KinEASE-STK assay of RSK2 kinase inhibition in vitro
Format: biochemical
Settings: 0.18 nM RSK2 recombinase, 10 μM ATP, read-out: IC50, in vitro inhibitory activity on RSK2 kinase
Let's look at some molecules and their measured pIC50.
Answer as the number alone; pIC50 is minus log10 of concentration in mol/L.

Below: 6 molecules and their reported pIC50.
• Cc1cc(NC(=O)c2ccc3cc4n(c3n2)[C@H](C)CNC4=O)nn1Cc1ccc(C(C)(C)O)nc1 [Compound 9] = 7.37
• C[C@@H]1NC(=O)c2cc3ccc(C(=O)Nc4cnn(Cc5cnc(C(C)(C)O)c(F)c5)c4)nc3n2[C@@H]1C [Compound 16] = 10.10
• C[C@@H]1CNC(=O)c2cc3ccc(C(=O)Nc4cnn(Cc5ccc(S(C)(=N)=O)cc5)c4)nc3n21 (stereo partly shown) [Compound 3] = 9.62
• C[C@@H]1CNC(=O)c2cc3ccc(C(=O)Nc4cnn(Cc5ccc(C(C)(C)O)nc5)c4)c(F)c3n21 [Compound 13] = 8.27
• CC(c1ccc(C(C)(C)O)nc1)n1cc(NC(=O)c2ccc3cc4n(c3n2)[C@H](C)CNC4=O)cn1 (stereo partly shown) [Compound 8] = 9.10
• C[C@@H]1CNC(=O)c2cc3ccc(C(=O)Nc4cnn(Cc5ccnc(C(C)(C)O)c5)c4)nc3n21 [Compound 4] = 9.38

query: Look up and report measured pIC50 (RSK2 kinase (Homo sapiens)) for the following molecule: C[C@@H]1CNC(=O)c2cc3ccc(C(=O)Nc4cnn(Cc5ccc(C(C)(C)O)nc5)c4)nc3n21 [Compound 5]
result: 9.46

---

Let's look at some molecules and their measured half-life.
Experiment: Pharmacokinetic study in mice
Assay type: in vivo
Conditions: mouse; male ICR mice, oral gavage administration, 10 mg/kg, plasma
Quick note: give the figure in h, leave out the unit.

query: For the molecule `C[C@@H]1CNC(=O)c2cc3ccc(C(=O)Nc4cnn(Cc5ccc(C(C)(C)O)nc5)c4)nc3n21` , report half-life.
result: 1.57

query: For the molecule `C[C@@H]1CNC(=O)c2cc3ccc(C(=O)Nc4cnn(Cc5cnc(C(C)(C)O)c(F)c5)c4)nc3n21` , report half-life.
result: 2.19

query: For the molecule C[C@@H]1CNC(=O)c2cc3ccc(C(=O)Nc4cnn(Cc5ccc(N)cc5)c4)nc3n21.Cl [Control Compound II, reference compound] , report half-life.
result: 0.82

Origin of values: patent US20260193283A1
